Molecular target: human NDP kinase A (NDPK-A) variant L55H-N115S, SEQ ID NO: 3 (Homo sapiens, UniProt P15531, L55H/N115S)
Construct: made in house; host or cells: E. coli
Sequence (P15531 whole entry L55H/N115S): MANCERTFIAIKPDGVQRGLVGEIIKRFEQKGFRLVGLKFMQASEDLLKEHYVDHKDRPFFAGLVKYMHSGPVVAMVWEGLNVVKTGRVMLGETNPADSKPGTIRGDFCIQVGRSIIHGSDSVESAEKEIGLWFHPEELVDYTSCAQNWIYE
Assay: Pre-steady-state phosphotransfer, fluorescence stopped-flow
Format: biochemical
Settings: ratio of catalytic efficiencies analog vs natural nucleotide, mutant vs wild type
Experimental: FIG. 3 depicts the catalytic efficiency of NDPK-A and mutants for nucleoside analogs. The rates of phosphorylation of pure recombinant NDP kinases (1 μM) were measured at the pre-steady state in a fluorescence stopped-flow with d4T-TP (10 to 80 μM). The catalytic efficiency (expressed in M^−1s^−1) was determined from the variation of the rate as a function of analog as shown in FIG. 2 (▾, NDPK-A, ♦ L55H, ● N115S, ▪ L55H-N115S). […] The data were analyzed using the reaction scheme: [drawing 1] […]

>  <Compound>
Nc1nc2c(ncn2[C@H]2CC[C@@H](COP(=O)(O)OP(=O)(O)OP(=O)(O)O)O2)c(=O)[nH]1

>  <Specificity change (R)>
(160)

$$$$
>  <Compound>
Cc1cn([C@H]2CC[C@@H](COP(=O)(O)OP(=O)(O)OP(=O)(O)O)O2)c(=O)[nH]c1=O

>  <Specificity change (R)>
(370)

$$$$
>  <Compound>
Cc1cn([C@H]2C=C[C@@H](COP(=O)(O)OP(=O)(O)OP(=O)(O)O)O2)c(=O)[nH]c1=O [d4T-TP, dideoxy, didehydro-TTP]

>  <Specificity change (R)>
(210)

$$$$
>  <Compound>
Cc1cn([C@H]2C[C@H](N=[N+]=[N-])[C@@H](COP(=O)(O)OP(=O)(O)OP(=O)(O)O)O2)c(=O)[nH]c1=O

>  <Specificity change (R)>
(240)

$$$$
>  <Compound>
Nc1nc2c(ncn2COCCOP(=O)(O)OP(=O)(O)OP(=O)(O)O)c(=O)[nH]1

>  <Specificity change (R)>
(460)

$$$$

###

target: Dictyostelium discoideum NDP kinase (Dd-NDPK), wild type (Dictyostelium discoideum, UniProt P22887); construct: made in house; assay: Pre-steady-state phosphotransfer, fluorescence stopped-flow; assay type: biochemical; details: catalytic efficiency of phosphotransfer, wt
Sequence (P22887 whole entry): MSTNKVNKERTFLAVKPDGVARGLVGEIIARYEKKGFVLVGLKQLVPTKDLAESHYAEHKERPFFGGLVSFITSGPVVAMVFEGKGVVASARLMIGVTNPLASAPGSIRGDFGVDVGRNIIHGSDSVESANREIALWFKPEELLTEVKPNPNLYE
Experimental readout: k2/Ks (M⁻¹ s⁻¹)

>  <Molecule>
Nc1nc2c(ncn2[C@H]2CC[C@@H](COP(=O)(O)OP(=O)(O)OP(=O)(O)O)O2)c(=O)[nH]1

>  <Value measured>
2300

$$$$
>  <Molecule>
Nc1nc2c(ncn2COCCOP(=O)(O)OP(=O)(O)OP(=O)(O)O)c(=O)[nH]1

>  <Value measured>
350

$$$$
>  <Molecule>
Cc1cn([C@H]2C[C@H](N=[N+]=[N-])[C@@H](COP(=O)(O)OP(=O)(O)OP(=O)(O)O)O2)c(=O)[nH]c1=O

>  <Value measured>
270

$$$$

###

Entries and their k2/Ks values follow.
molecular target: human NDP kinase A (NDPK-A) variant N115S, SEQ ID NO: 2 (Homo sapiens, UniProt P15531, N115S); construct: made in house; host or cells: E. coli; test: Pre-steady-state phosphotransfer, fluorescence stopped-flow; type: biochemical; settings: catalytic efficiency of phosphotransfer, N115S, pre-steady state
Sequence (P15531 whole entry N115S): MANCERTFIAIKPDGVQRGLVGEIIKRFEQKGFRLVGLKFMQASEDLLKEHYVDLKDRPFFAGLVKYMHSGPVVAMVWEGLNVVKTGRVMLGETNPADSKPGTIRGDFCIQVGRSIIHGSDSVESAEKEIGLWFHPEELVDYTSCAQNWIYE

>  <Molecule>
Cc1cn([C@H]2C=C[C@@H](COP(=O)(O)OP(=O)(O)OP(=O)(O)O)O2)c(=O)[nH]c1=O [d4T-TP, dideoxy, didehydro-TTP]

>  <k2/Ks [M⁻¹ s⁻¹]>
6250

$$$$
>  <Molecule>
Cc1cn([C@H]2C[C@H](O)[C@@H](COP(=O)(O)OP(=O)(O)OP(=O)(O)O)O2)c(=O)[nH]c1=O

>  <k2/Ks [M⁻¹ s⁻¹]>
100000

$$$$
>  <Molecule>
Cc1cn([C@H]2C[C@H](N=[N+]=[N-])[C@@H](COP(=O)(O)OP(=O)(O)OP(=O)(O)O)O2)c(=O)[nH]c1=O

>  <k2/Ks [M⁻¹ s⁻¹]>
900

$$$$

These measurements were taken from patent US20030207830A1.
